- ASSAYED TARGET: T1, human connexin36 (Cx36) (human, UniProt Q9UKL4 1-321)
- T1 construct: whole, on cells; Hemichannel expressed in HEK 293FT cells for FETCH; also called GJD2; not shown: C-terminal fluorescent protein fusion (mEmerald or RFP670 in FETCH)
- T1 sequence (looked up): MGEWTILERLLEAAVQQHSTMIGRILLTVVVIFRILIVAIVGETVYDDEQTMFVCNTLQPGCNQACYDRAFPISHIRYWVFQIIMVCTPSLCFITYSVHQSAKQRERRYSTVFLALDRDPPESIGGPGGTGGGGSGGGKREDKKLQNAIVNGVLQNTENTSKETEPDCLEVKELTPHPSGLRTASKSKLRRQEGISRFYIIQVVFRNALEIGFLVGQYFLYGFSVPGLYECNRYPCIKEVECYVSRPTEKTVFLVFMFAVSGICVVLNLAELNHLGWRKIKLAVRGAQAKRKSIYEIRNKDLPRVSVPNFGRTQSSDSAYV
- PROTOCOL DESCRIPTION: FETCH (flow cytometry, % dual-labelled HEK 293FT cells), heterotypic
METRIC NAME: FETCH score (%)
Please reply with the bare figure in % and do not write the unit itself.

# binder Cx34.7K222Q (Morone americana Cx34.7 mutant K222Q) (other, Extracellular loop mutant of the screening library; not shown: C-terminal fluorescent protein fusion (mEmerald or RFP670 in FETCH)) MGEWTILERLLEAAVQQHSTMIGRILLTVVVIFRILIVAIVGETVYEDEQAMFICNTLQPGCNQACYDKAFPISHIRYWVFQIILVCTPSLCFITYSVHQSAKQKDRRYSFLYPIMERDYGGRDGARKLRNINGILVQHGGDGGGGKEEPDCLEVKEIPNAPRGLTHGKSSKVRRQEGISRFYIIQVVFRNALEIGFLAGQYFLYGFSVPGIFECDRYPCLQEVECYVSRPTEKTVFLVFMFAVSGICVVLNLAELNHLGWRKIKAAIRGVQARRKSICEIRKKDMAHLSQPPNLGRTQSSESAYV ; its FETCH score = 22.8

Further cases:
# binder Cx35E224R (Morone americana Cx35 mutant E224R) (other, Extracellular loop mutant of the screening library; not shown: C-terminal fluorescent protein fusion (mEmerald or RFP670 in FETCH)) MGEWTILERLLEAAVQQHSTMIGRILLTVVVIFRILIVAIVGETVYDDEQTMFVCNTLQPGCNQACYDKAFPISHIRYWVFQIIMVCTPSLCFITYSVHQSAKQKERRYSTVYLTLDKDQDSLKRDESKKIKNTIVNGVLQNTENSTKEAEPDCLEVKEIPNSAMRTTKSKMRRQEGISRFYIIQVVFRNALEIGFLVGQYFLYGFNVPSVYECDRYPCIKDVRCYVSRPTEKTVFLVFMFAVSGFCVVLNLAELNHLGWRKIKTAVRGVQARRKSIYEIRNKDLPRMSVPNFGRTQSSDSAYV ; its FETCH score = 0.6
